target: BIR2 domain of XIAP (Homo sapiens (Human), UniProt P98170, C202A/C213G); test: TR-FRET assay for BIR2 (inhibition of binding of XIAP BIR2 domain to SMAC-derived Peptide A); settings: 6x His-tagged BIR2 domain (aa 124-240 of XIAP) 10 nM, Peptide A 20 nM, TR-FRET; read-out: IC50 BIR2
Sequence (P98170 124-240 with tags or gaps C202A/C213G limits assumed): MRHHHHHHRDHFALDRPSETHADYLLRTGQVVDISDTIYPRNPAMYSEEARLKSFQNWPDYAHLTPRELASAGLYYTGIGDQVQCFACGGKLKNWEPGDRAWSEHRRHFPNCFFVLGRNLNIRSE
Structures can show the parent of a compound that is named as a salt.
Label Fulfilled when IC50 < 0.1 µM; otherwise Not fulfilled.

Prompt: Input CN[C@@H](C)C(=O)N[C@H]1CN(C(=O)CN2CCN(C)CC2)c2ccccc2N(Cc2c(C)ccc3ccccc23)C1=O [Example 12, hydrochloride] ; condition: IC50 strictly below 0.1 µM. Does it hold?
Completion: Not fulfilled

Prompt: Input CN[C@@H](C)C(=O)N[C@H]1CN2CCNC(=O)c3ccc4c(c(OC)ccc4c3)CN(C1=O)c1ccccc12 [Example 59, hydrochloride] ; condition: IC50 strictly below 0.1 µM. Does it hold?
Completion: Not fulfilled

Prompt: Input CN[C@@H](C)C(=O)N[C@H]1CN(C(=O)CC23CC4CC(CC(C4)C2)C3)c2ccccc2N(Cc2c(OC)ccc3cc(Br)ccc23)C1=O [Example 13q] ; condition: IC50 strictly below 0.1 µM. Does it hold?
Completion: Fulfilled

Prompt: Input CN[C@@H](C)C(=O)N[C@H]1CN(C(=O)c2ccc(NC(=O)OCC3c4ccccc4-c4ccccc43)cc2)c2ccccc2N(Cc2c(OC)ccc3cc(C(=O)OC)ccc23)C1=O [Example 55, hydrochloride] ; condition: IC50 strictly below 0.1 µM. Does it hold?
Completion: Fulfilled

Prompt: Input CN[C@@H](C)C(=O)N[C@H]1CN(C(=O)c2ccc(C#N)cc2)c2ccccc2N(Cc2c(OC(F)F)ccc3ccccc23)C1=O [Example 74] ; condition: IC50 strictly below 0.1 µM. Does it hold?
Completion: Fulfilled

Prompt: Input CNC(=O)N1C[C@H](NC(=O)[C@H](C)NC)C(=O)N(Cc2c(C)ccc3ccccc23)c2ccccc21 [Example 17, hydrochloride] ; condition: IC50 strictly below 0.1 µM. Does it hold?
Completion: Not fulfilled

Prompt: Input CN[C@@H](C)C(=O)N[C@H]1CN(CCc2ccccc2)c2ccccc2N(Cc2cccc3ccccc23)C1=O [Example 7, trifluoroacetate] ; condition: IC50 strictly below 0.1 µM. Does it hold?
Completion: Not fulfilled

Prompt: Input CC[C@H](NC)C(=O)NC1C(=O)N(Cc2c(OC)ccc3ccccc23)c2ccccc2N(CC23CC4CC(CC(C4)C2)C3)C1=O (stereo partly drawn) [Example 113] ; condition: IC50 strictly below 0.1 µM. Does it hold?
Completion: Not fulfilled

Prompt: Input CN[C@@H](C)C(=O)N[C@H]1CN(C(=O)CS(C)(=O)=O)c2cc(C#N)ccc2N(Cc2c(OC)ccc3ccccc23)C1=O [Example 166, hydrochloride] ; condition: IC50 strictly below 0.1 µM. Does it hold?
Completion: Fulfilled

Prompt: Input CN[C@@H](C)C(=O)N[C@H]1CN(C(=O)CCCCC(=O)O)c2ccccc2N(Cc2c(C)ccc3ccccc23)C1=O [Example 60, hydrochloride] ; condition: IC50 strictly below 0.1 µM. Does it hold?
Completion: Not fulfilled

Prompt: Input CN[C@@H](C)C(=O)N[C@H]1CN(C(=O)c2cc(OC)c(OC)c(OC)c2)c2ccccc2N(Cc2c(C)ccc3ccccc23)C1=O [Example 13g] ; condition: IC50 strictly below 0.1 µM. Does it hold?
Completion: Not fulfilled

// provenance: patent US10053431B2
